Target: Kv7.2 D212A channel (Homo sapiens, UniProt O43526, D212A)
Experiment: Whole-cell patch-clamp of Kv7.2 D212A mutant channel
Structures can show the parent of a compound that is named as a salt.
measured quantity: pIC50
The scale used: pIC50 is minus the common logarithm of the concentration in molar units.

Task item: System Kv7.2 D212A channel (Homo sapiens, UniProt O43526, D212A). Read-out pIC50. Item Fc1ccc([C@@H]2CCNC[C@H]2COc2ccc3c(c2)OCO3)cc1 [paroxetine, paroxetine hydrochloride] . Report value.
Reply: 4.39

###

Structures can show the parent of a compound that is named as a salt.
measured quantity: IC50
Answer format: number, then unit.

Task item: Enter measured IC50, system Kv7.2/Kv7.3 channels (Homo sapiens, UniProt O43525+O43526), for the compound shown: Fc1ccc([C@@H]2CCNC[C@H]2COc2ccc3c(c2)OCO3)cc1 [paroxetine, paroxetine hydrochloride]
Reply: 3.6 µM
